measurement-target: T1, recombinant human IL-23R/Fc chimera (R&D Systems) (human, UniProt Q5VWK5 24-355)
T1 construct: Bought; also called rhIL23RFc
T1 sequence (looked up): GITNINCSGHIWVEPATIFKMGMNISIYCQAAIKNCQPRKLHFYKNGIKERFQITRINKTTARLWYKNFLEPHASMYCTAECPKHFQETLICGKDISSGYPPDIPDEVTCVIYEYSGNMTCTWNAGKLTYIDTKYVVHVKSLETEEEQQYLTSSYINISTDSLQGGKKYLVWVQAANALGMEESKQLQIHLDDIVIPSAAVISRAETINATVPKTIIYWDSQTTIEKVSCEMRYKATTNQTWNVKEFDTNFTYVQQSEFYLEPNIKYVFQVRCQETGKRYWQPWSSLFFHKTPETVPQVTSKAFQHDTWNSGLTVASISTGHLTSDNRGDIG
assay-info: SPR
Form field: koff (one value per entry).
All answers are understood in s⁻¹, so give the number only.

[
  {
    "binder": "001-87.A4A monomeric CTLD (designed binder, C-terminal tag not specified) ALQTVCLKGTKVHMKCFLAFTQTKTFHEASEDCISRGGTLSTPQTGSENDALYEYLRQSVGNEAEIWLGLNWTLAKNLWVDMTGARIAYKNWETEITAQPDGGLFGRGENCAVLSGAANGKWFDKRCRDQLPYICQFGIV",
    "unit-spec": "s⁻¹",
    "measured-result": 0.0229
  },
  {
    "binder": "105-20-2A3 ATRIMER complex (designed binder, Homotrimer of three identical chains (ATRIMER complex); one chain is given., not shown: C-terminal tag: His/Myc (pANA4) or HA-StrepII (pANA10)) EPPTQKPKKIVNAKKDVVNTKMFEELKSRLDTLAQEVALLKEQQALQTVCLKGTKVHMKCFLAFTQTKTFHEASEDCISRGGTLSTPQTGSENDALYEYLRQSVGNEAEIWLGLNGSPITNTWVDMTGARIAYKNWETEITAQPDGGFGYFGENCAVLSGAANGKWFDKRCRDQLPYICQFGIV",
    "unit-spec": "s⁻¹",
    "measured-result": 0.000312
  },
  {
    "binder": "101-54-4B6 ATRIMER complex (designed binder) EPPTQKPKKIVNAKKDVVNTKMFEELKSRLDTLAQEVALLKEQQALQTVCLKGTKVHMKCFLAFTQTKTFHEASEDCISRGGTLSTPQTGSENDALYEYLRQSVGNEAEIWLGLNGSALTNTWVDMTGARIAYKNWEPPGPHHPMGGFGVFGENCAVLSGAANGKWFDKRCRDQLPYICQFGIV",
    "unit-spec": "s⁻¹",
    "measured-result": 0.00039
  },
  {
    "binder": "105-08-2C10 ATRIMER complex (designed binder) EPPTQKPKKIVNAKKDVVNTKMFEELKSRLDTLAQEVALLKEQQALQTVCLKGTKVHMKCFLAFTQTKTFHEASEDCISRGGTLSTPQTGSENDALYEYLRQSVGNEAEIWLGLNGSLLTDTWVDMTGARIAYKNWETEITAQPDGGFGVFGENCAVLSGAANGKWFDKRCRDQLPYICQFGIV",
    "unit-spec": "s⁻¹",
    "measured-result": 0.000371
  },
  {
    "binder": "001-87.A5F ATRIMER complex (designed binder, Homotrimer of this chain (ATRIMER complex)., also called Atrimer A5F; not shown: A possible extra N-terminal Ser from the ompA junction is left out) EPPTQKPKKIVNAKKDVVNTKMFEELKSRLDTLAQEVALLKEQQALQTVCLKGTKVHMKCFLAFTQTKTFHEASEDCISRGGTLSTPQTGSENDALYEYLRQSVGNEAEIWLGLNGSVRSATWVDMTGARIAYKNWETEITAQPDGGFGYFGENCAVLSGAANGKWFDKRCRDQLPYICQFGIV",
    "unit-spec": "s⁻¹",
    "measured-result": 0.0007
  }
]

(Q) Report koff, nothing else, for this binder: 105-20-1H7 ATRIMER complex (designed binder) EPPTQKPKKIVNAKKDVVNTKMFEELKSRLDTLAQEVALLKEQQALQTVCLKGTKVHMKCFLAFTQTKTFHEASEDCISRGGTLSTPQTGSENDALYEYLRQSVGNEAEIWLGLNGSAGTNTWVDMTGARIAYKNWETEITAQPDGGFGYFGENCAVLSGAANGKWFDKRCRDQLPYICQFGIV
(A) 0.000372

(Q) Report koff, nothing else, for this binder: 105-08-1A8 ATRIMER complex (designed binder) EPPTQKPKKIVNAKKDVVNTKMFEELKSRLDTLAQEVALLKEQQALQTVCLKGTKVHMKCFLAFTQTKTFHEASEDCISRGGTLSTPQTGSENDALYEYLRQSVGNEAEIWLGLNGSPRTNTWVDMTGARIAYKNWETEITAQPDGGFGVFGENCAVLSGAANGKWFDKRCRDQLPYICQFGIV
(A) 0.000344

(Q) Report koff, nothing else, for this binder: 001-69.4F5 monomeric CTLD (designed binder, C-terminal tag not specified; not shown: Also the vector's N-terminal AGGGS after the pelB signal) ALQTVCLKGTKVHMKCFLAFTQTKTFHEASEDCISRGGTLSTPQTGSENDALYEYLRQSVGNEAEIWLGLNVLGWRREWVDMTGARIAYKNWETEITAQPDGGLVMPMENCAVLSGAANGKWFDKRCRDQLPYICQFGIV
(A) 0.00571

(Q) Report koff, nothing else, for this binder: 105-08-2G10 ATRIMER complex (designed binder) EPPTQKPKKIVNAKKDVVNTKMFEELKSRLDTLAQEVALLKEQQALQTVCLKGTKVHMKCFLAFTQTKTFHEASEDCISRGGTLSTPQTGSENDALYEYLRQSVGNEAEIWLGLNGSPLTDTWVDMTGARIAYKNWETEITAQPDGGFGYFGENCAVLSGAANGKWFDKRCRDQLPYICQFGIV
(A) 0.000397
